System: Mus musculus
TEST_SUMMARY: In vivo effective dose to produce antagonism of CB agonist (WIN-55212) induced hypothermia in mouse
MEASUREMENT_NAME: LED (mg/kg)
Could you give me the number in mg/kg? Just the number is fine.

Reported LED of `Cc1c(C(=O)NN2CCCCC2)nn(-c2ccc(Cl)cc2Cl)c1-c1ccc(Cl)cc1` : 3

Consider `CCc1c(C(=O)NN2CCCCC2)nc(-c2ccc(Cl)cc2Cl)n1-c1ccc(Cl)cc1` . Its measured LED is 30

// recorded LED for `Cc1c(C(=O)NN2CCCCC2)nc(-c2ccc(Cl)cc2Cl)n1-c1ccc(Cl)cc1` : 10

---

MEASUREMENT_NAME: pKi
The meaning of pKi here: minus log10 of the concentration in molar units.

Lab entry: UniProtKB P34972 assay, compound `Cc1c(C(=O)NOC(C)(C)C)nc(-c2ccc(Cl)cc2Cl)n1-c1ccc(Cl)cc1` , pKi = 6.62

// returns pKi for `CCc1c(C(=O)NN2CCCCC2)nc(-c2ccc(Cl)cc2Cl)n1-c1ccc(Cl)cc1` with UniProtKB P34972; value = 6.37

Reported pKi (UniProtKB P34972) for entry `O=C(NN1CCCCC1)c1nc(-c2ccc(Cl)cc2Cl)n(-c2ccc(Cl)cc2)c1Br` is 6.13

Summary: `O=C(NN1CCCCC1)c1cn(-c2ccc(Cl)cc2)c(-c2ccc(Cl)cc2Cl)n1` , UniProtKB P34972, pKi = 6.27

Test item `Cc1c(C(=O)NN2CCCCCC2)nc(-c2ccc(Cl)cc2Cl)n1-c1ccc(Cl)cc1` ; UniProtKB P34972; reported pKi was 6.30

I looked up `Cc1c(C(=O)NN2CCCC2)nc(-c2ccc(Cl)cc2Cl)n1-c1ccc(Cl)cc1` and its pKi for UniProtKB P34972 was 6.11

Entry `O=C(NN1CCCCC1)c1nc(-c2ccc(Cl)cc2Cl)c(-c2ccc(Cl)cc2)s1` : pKi on UniProtKB P34972 = 5.23

With UniProtKB P34972 as the test system, `Cl.Cl.O=C(NN1CCCCC1)c1nc(-c2ccc(Cl)cc2Cl)n(-c2ccc(Cl)cc2)n1` showed pKi of 5.45

Kindly note: UniProtKB P34972, `Cc1c(C(=O)NC2CCCC2)nc(-c2ccc(Cl)cc2Cl)n1-c1ccc(Cl)cc1` , pKi value reported: 6.45

---

Consider the following log10(Ki) values measured on Cannabinoid receptor 1 (Homo sapiens).
Scale: log10; quantity: Ki; unit before log: nM

The value of log10(Ki) measured for the compound `CCc1c(C(=O)NN2CCCCC2)nc(-c2ccc(Cl)cc2Cl)n1-c1ccc(Cl)cc1` turned out to be 1.15

get_value(item= `Cl.Cl.O=C(NN1CCCCC1)c1nc(-c2ccc(Cl)cc2Cl)n(-c2ccc(Cl)cc2)n1` , readout=log10(Ki)) returns 2.55

So for `Cc1c(C(=O)N2CCc3ccccc3C2)nc(-c2ccc(Cl)cc2Cl)n1-c1ccc(Cl)cc1` , the logged log10(Ki) turned out to be 1.53

For record `O=C(NN1CCCCC1)c1nc(-c2ccc(Cl)cc2Cl)n(-c2ccc(Cl)cc2)c1Br` the listed log10(Ki) is 1.36

Noted for `O=C(NN1CCCCC1)c1cn(-c2ccc(Cl)cc2)c(-c2ccc(Cl)cc2Cl)n1` : its log10(Ki) reads 1.36

Sure, the documented log10(Ki) for `Cc1c(C(=O)N[C@H]2CC[C@H](O)CC2)nc(-c2ccc(Cl)cc2Cl)n1-c1ccc(Cl)cc1` is 2.60

The measured log10(Ki) associated with `O=C(NN1CCCCC1)c1nc(-c2ccc(Cl)cc2)n(-c2ccc(Cl)cc2Cl)n1` reads 2.58

According to the records, this compound `Cc1c(C(=O)NN2CCCCC2)nc(-c2ccc(Cl)cc2Cl)n1-c1ccc(Br)cc1` displays log10(Ki) of 1.78

The compound listed as `CCN(CC)C(=O)c1nc(-c2ccc(Cl)cc2Cl)n(-c2ccc(Cl)cc2)c1C` shows log10(Ki) equal to 2.92

# compound `Cc1c(C(=O)NCc2ccc(C(F)(F)F)cc2)nc(-c2ccc(Cl)cc2Cl)n1-c1ccc(Cl)cc1` ; its log10(Ki) = 2.23

response.value for `N#Cc1c(C(=O)NN2CCCCC2)nc(-c2ccc(Cl)cc2Cl)n1-c1ccc(Cl)cc1` (field: log10(Ki)) = 1.48

Reported log10(Ki) of `O=C(NN1CCCCC1)c1nc(-c2ccc(Cl)cc2Cl)n(-c2ccc(Cl)cc2)c1CF` : 1.56

// field: log10(Ki); key: Cc1c(C(=O)NC2CC3CCC2C3)nc(-c2ccc(Cl)cc2Cl)n1-c1ccc(Cl)cc1 (stereo unspecified) ; value = 1.28

// log10(Ki) value for `O=C(NN1CCCCC1)c1nc(-c2ccc(Cl)cc2Cl)n(-c2ccc(Cl)cc2)c1Cl` : 1.43

The value of log10(Ki) measured for the compound `O=C(NN1CCCCC1)c1nc(-c2ccc(Cl)cc2Cl)c(-c2ccc(Cl)cc2)s1` turned out to be 2.36

Reported log10(Ki) of `Cc1c(C(=O)NC2CCCC2)nc(-c2ccc(Cl)cc2Cl)n1-c1ccc(Cl)cc1` : 1.52

Entry under test: `Cc1c(C(=O)NN2CCCCC2)nc(-c2ccc(Cl)cc2)n1-c1ccc(Cl)cc1Cl` . Its log10(Ki) was 2.61

Input `Cc1c(C(=O)NN2CCCC2)nc(-c2ccc(Cl)cc2Cl)n1-c1ccc(Cl)cc1` . Output log10(Ki): 1.43

Field log10(Ki) (entry `Cc1c(C(=O)OC(C)(C)C)nc(-c2ccc(Cl)cc2Cl)n1-c1ccc(Cl)cc1` ) reads 1.97

Recorded result, `Cc1c(C(=O)NN2CCCCC2)nc(-c2ccc(Cl)cc2Cl)n1-c1ccc(C(F)(F)F)cc1` , log10(Ki): 1.46

---

MEASUREMENT_TARGET: Cannabinoid receptor 1 (Homo sapiens)
TEST_SUMMARY: In vitro cannabinoid receptor 1 antagonism of [3H]arachidonic acid release by CHO cells
Type: functional, cell-based
CONDITION_LABEL: read-out: pA2 (converted)
Field: Kb. Provide a value for each of the compounds that follow.
Lab book: enter the figure in nM, no units written.

Noted for `O=C(NN1CCCCC1)c1nc(-c2ccc(Cl)cc2Cl)n(-c2ccc(Cl)cc2)c1CF` : its Kb reads 1.26

Given item `O=C(NN1CCCCC1)c1nc(-c2ccc(Cl)cc2Cl)n(-c2ccc(Cl)cc2)c1Br` , the value recorded as its Kb is 3.98

Kb in this record for `O=C(NN1CCCCC1)c1nc(-c2ccc(Cl)cc2)c(-c2ccc(Cl)cc2Cl)s1` : 63.1

Measured Kb, `Cc1c(C(=O)NN2CCCCC2)nc(-c2ccc(Cl)cc2Cl)n1-c1ccc(C(F)(F)F)cc1` : 2.51

response.value for `Cc1c(C(=O)NN2CCCCC2)nc(-c2ccc(Cl)cc2Cl)n1-c1ccc(Cl)cc1` (field: Kb) = 2.51

`Cc1c(C(=O)N[C@H]2CC[C@H](O)CC2)nc(-c2ccc(Cl)cc2Cl)n1-c1ccc(Cl)cc1` yielded Kb of 50.1

The compound listed as `CCN(CC)C(=O)c1nc(-c2ccc(Cl)cc2Cl)n(-c2ccc(Cl)cc2)c1C` shows Kb equal to 39.8

Looking up `Cl.Cl.O=C(NN1CCCCC1)c1nc(-c2ccc(Cl)cc2Cl)n(-c2ccc(Cl)cc2)n1` , I found its Kb recorded as 5.01

The compound listed as `Cc1c(C(=O)NN2CCCCC2)nc(-c2ccc(Cl)cc2)n1-c1ccc(Cl)cc1Cl` shows Kb equal to 20

---

Exercise: state measured Kb for each of the compounds provided.
MEASUREMENT_TARGET: Cannabinoid receptor 1 (Homo sapiens, UniProt P21554)
Sequence (P21554 whole entry): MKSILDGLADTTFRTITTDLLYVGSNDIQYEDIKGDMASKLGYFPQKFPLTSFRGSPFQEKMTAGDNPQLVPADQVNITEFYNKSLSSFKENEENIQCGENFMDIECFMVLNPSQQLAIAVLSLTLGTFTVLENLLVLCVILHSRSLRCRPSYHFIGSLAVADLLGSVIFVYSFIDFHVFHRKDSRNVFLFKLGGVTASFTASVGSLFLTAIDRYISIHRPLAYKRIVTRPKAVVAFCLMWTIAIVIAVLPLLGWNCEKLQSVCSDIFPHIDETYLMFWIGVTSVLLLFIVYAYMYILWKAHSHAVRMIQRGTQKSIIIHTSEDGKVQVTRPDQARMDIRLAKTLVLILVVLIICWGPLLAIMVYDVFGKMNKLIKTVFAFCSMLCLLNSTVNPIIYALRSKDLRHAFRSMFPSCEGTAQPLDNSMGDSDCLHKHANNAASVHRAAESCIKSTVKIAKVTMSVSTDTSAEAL
TEST_SUMMARY: In vitro cannabinoid receptor 1 antagonism of [3H]arachidonic acid release by CHO cells
Format: functional, cell-based
CONDITION_LABEL: read-out: pA2 (converted)
Supply the numeric figure in nM, leaving out any unit text.

Kb reading for `O=C(NN1CCCCC1)c1nc(-c2ccc(Cl)cc2)n(-c2ccc(Cl)cc2Cl)n1` : 25.1

Memo: `O=C(NN1CCCCC1)c1nc(-c2ccc(Cl)cc2Cl)n(-c2ccc(Cl)cc2)c1Cl` , reported Kb: 3.16

// `Cc1c(C(=O)NN2CCCCCC2)nc(-c2ccc(Cl)cc2Cl)n1-c1ccc(Cl)cc1` : Kb value = 2

Looking up `Cc1c(C(=O)NC2CCCCC2)nc(-c2ccc(Cl)cc2Cl)n1-c1ccc(Cl)cc1` , I see its Kb listed as 0.794

Record summary for `COc1ccc(-n2c(-c3ccc(Cl)cc3Cl)nc(C(=O)NN3CCCCC3)c2C)cc1` : reported Kb = 2

// `Cc1c(C(=O)OC(C)(C)C)nc(-c2ccc(Cl)cc2Cl)n1-c1ccc(Cl)cc1` : Kb value = 2.51

Sample `Cc1c(C(=O)NN2CCCCC2)nc(-c2ccc(Cl)cc2Cl)n1-c1ccc(Br)cc1` ; Kb observed: 3.16

compound `Cc1c(C(=O)NOC(C)(C)C)nc(-c2ccc(Cl)cc2Cl)n1-c1ccc(Cl)cc1` , Kb observed: 6.31

The measurements presented in this section are drawn from ChEMBL document CHEMBL1145197.
